- Tested Target: recombinant human ACC2 (Homo sapiens (Human))
- Sequence (O00763 27-2458): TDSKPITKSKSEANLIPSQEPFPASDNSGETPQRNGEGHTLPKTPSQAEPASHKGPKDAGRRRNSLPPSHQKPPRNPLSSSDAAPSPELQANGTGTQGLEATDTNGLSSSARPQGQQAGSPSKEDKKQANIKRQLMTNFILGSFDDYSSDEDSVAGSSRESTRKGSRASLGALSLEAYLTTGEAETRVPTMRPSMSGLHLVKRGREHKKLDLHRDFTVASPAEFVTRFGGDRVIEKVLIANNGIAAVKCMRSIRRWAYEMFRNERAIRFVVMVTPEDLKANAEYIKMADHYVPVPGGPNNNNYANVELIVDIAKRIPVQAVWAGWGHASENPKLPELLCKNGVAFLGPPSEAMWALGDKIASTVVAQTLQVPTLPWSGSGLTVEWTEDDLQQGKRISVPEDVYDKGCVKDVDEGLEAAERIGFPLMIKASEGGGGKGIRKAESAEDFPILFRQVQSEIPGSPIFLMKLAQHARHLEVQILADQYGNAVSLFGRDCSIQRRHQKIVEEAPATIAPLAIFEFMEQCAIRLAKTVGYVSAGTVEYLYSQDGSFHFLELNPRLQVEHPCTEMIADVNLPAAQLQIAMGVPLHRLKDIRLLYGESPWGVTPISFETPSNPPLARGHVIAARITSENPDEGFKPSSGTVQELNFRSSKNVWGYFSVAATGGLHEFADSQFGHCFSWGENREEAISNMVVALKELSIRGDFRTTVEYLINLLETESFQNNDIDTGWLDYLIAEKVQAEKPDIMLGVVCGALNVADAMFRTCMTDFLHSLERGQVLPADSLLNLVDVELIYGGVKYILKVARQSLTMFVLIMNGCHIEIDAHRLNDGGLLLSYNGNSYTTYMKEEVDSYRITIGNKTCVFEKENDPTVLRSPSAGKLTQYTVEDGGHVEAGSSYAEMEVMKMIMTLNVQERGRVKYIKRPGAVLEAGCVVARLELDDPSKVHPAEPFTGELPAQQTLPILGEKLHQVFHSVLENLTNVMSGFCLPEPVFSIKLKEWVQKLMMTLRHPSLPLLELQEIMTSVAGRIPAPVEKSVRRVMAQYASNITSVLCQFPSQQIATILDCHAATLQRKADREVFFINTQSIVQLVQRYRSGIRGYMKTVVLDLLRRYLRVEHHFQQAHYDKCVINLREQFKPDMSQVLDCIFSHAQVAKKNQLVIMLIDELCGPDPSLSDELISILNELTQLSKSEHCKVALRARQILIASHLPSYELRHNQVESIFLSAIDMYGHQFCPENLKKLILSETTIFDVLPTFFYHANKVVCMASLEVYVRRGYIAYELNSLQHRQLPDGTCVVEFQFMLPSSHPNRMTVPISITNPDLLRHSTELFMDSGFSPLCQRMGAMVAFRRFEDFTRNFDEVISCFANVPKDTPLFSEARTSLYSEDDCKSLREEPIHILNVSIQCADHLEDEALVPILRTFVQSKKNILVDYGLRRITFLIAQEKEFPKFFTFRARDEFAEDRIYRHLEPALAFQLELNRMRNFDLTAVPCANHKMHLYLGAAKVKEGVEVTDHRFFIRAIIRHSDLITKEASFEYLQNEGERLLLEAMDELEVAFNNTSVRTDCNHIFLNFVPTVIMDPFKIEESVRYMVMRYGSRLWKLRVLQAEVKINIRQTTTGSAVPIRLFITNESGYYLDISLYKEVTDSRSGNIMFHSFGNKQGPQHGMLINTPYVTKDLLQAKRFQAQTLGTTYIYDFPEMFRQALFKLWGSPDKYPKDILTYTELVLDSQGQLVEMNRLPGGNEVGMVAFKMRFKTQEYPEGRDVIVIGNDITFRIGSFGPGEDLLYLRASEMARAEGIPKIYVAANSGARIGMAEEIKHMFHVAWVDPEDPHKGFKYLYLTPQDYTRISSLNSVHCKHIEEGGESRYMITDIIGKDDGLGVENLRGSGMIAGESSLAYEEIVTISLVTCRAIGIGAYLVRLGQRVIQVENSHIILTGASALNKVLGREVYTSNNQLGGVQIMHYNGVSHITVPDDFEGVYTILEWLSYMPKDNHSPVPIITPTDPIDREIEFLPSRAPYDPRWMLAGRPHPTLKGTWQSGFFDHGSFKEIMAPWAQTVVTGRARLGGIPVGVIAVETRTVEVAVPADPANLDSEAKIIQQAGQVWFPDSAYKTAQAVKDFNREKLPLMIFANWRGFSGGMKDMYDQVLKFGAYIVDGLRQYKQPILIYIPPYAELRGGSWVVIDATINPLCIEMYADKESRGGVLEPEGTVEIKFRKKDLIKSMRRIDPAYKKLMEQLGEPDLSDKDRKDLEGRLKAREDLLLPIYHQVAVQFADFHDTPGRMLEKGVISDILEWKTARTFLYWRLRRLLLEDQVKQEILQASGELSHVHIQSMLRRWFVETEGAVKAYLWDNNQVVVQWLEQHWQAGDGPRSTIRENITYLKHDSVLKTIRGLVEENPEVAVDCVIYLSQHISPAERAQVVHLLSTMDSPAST
- Method Notes: Measurement of inhibitory activity on human ACC2 (MALDI-TOF MS, acetyl CoA to malonyl CoA conversion)
- Format: biochemical
- Condition Set: Table 154
pIC50: −log10 of the molar value.
Readout Name: pIC50

(A) CCOc1nc2ccc(Oc3cnc(OC[C@H](CO)NC(C)=O)cn3)c(F)c2s1
(B) CCOc1nc2ccc(O[C@H]3CC[C@](C)(OC[C@H](C)NC(C)=O)CC3)c(F)c2s1
(C) CCOc1nc2ccc(Oc3cnc(OC[C@H](C)NC(C)=O)cn3)c(F)c2s1
(Q) Falling order of pIC50, please. State the ranking by listing the labels in the requested order.
(A) C, A, B

(a) CCOc1nc2ccc(O[C@H]3C[C@@H](OC[C@H](C)NC(C)=O)C3)c(Cl)c2s1
(b) CCOc1nc2ccc(O[C@H]3CC[C@H](OC[C@H](C)NC(C)=O)CC3)c(Cl)c2s1
(c) CC(=O)N[C@@H](C)COc1cnc(Oc2ccc3nc(C(C)C)oc3c2F)cn1
(d) CC(=O)N[C@@H](C)COc1cnc(Oc2ccc3c(c2Cl)OCCN(C(C)C)C3=O)cn1
(Q) Arrange the 4 compounds by rising pIC50, starting with the smallest. State the ranking by listing the labels in the requested order.
(A) d, a, c, b
(d: 5.42, a: 6.77, c: 7.28, b: 7.82)
